measured.on: His6-AspH315–758 (human aspartate/asparagine-β-hydroxylase, AspH) (Homo sapiens)
Construct: N-Terminally His6-tagged human AspH315–758 (His6-AspH315–758) was produced in E. coli BL21 (DE3) cells; made in house; host or cells: E. coli BL21 (DE3), pET-28a(+) vector
Sequence (Q12797 315-758): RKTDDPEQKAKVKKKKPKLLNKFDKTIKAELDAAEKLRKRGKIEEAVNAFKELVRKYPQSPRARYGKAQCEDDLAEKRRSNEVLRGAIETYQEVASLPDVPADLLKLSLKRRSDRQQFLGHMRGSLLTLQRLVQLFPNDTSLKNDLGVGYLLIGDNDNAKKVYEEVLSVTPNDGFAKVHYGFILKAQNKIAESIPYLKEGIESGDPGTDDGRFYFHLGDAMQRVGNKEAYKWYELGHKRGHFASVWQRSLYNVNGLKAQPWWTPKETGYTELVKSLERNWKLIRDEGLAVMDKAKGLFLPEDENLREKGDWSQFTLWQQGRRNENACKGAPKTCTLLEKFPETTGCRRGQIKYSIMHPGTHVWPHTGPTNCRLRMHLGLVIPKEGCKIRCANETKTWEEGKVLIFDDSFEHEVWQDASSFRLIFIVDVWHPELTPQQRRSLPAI
procedure.summary: SPE-MS AspH inhibition assay (LOPAC screen at fixed 20 μM and IC50 dose-response), hydroxylation of cyclic peptide hFX-CP101–119
Assay type: biochemical
measured.endpoint: Plate 1 (% inhibition)
Reply with the number and its unit after it.

Look over these answered cases.
molecule: Cc1ccc([N+](=O)[O-])cc1S(=O)(=O)N(C)C
Plate 1 (% inhibition): -8.84%
--
molecule: CCCCCCCCCC[Si](C)(C)CCC(=O)NC(Cc1ccc(C)cc1)c1ccccc1 (stereo not shown)
Plate 1 (% inhibition): -3.81%
--
molecule: C[N+](C)(C)CCOC(=O)CBr.[Br-] [Bromoacetylcholine bromide]
Plate 1 (% inhibition): -1.12%

Kindly review the next molecule as well.
Query block: I would be grateful if you could share the reported Plate 1 (% inhibition) for C[C@@]12C(=O)OC(=O)[C@]1(C)[C@H]1CC[C@@H]2O1 .
Result block: 55.02%

---

measured.on: His6-AspH315–758 (human aspartate/asparagine-β-hydroxylase, AspH) (Homo sapiens)
Construct: N-Terminally His6-tagged human AspH315–758 (His6-AspH315–758) was produced in E. coli BL21 (DE3) cells; made in house; host or cells: E. coli BL21 (DE3), pET-28a(+) vector
procedure.summary: SPE-MS AspH inhibition assay (LOPAC screen at fixed 20 μM and IC50 dose-response), hydroxylation of cyclic peptide hFX-CP101–119
Assay type: biochemical
Hi there, I'd appreciate the recorded Plate 5 (% conversion) for every entry that follows.
Numbers only, in %.

Record excerpt, results attached:
smi: COc1ccc(/C=C/c2nc(NCCCN(C)C)c3ccccc3n2)cc1
measured.on: His6-AspH315–758 (human aspartate/asparagine-β-hydroxylase, AspH) (Homo sapiens)
measured.endpoint: Plate 5 (% conversion)
measured: 45.27
//
smi: O=C(Nc1ccc2c(c1)CCN(Cc1ncn[nH]1)C2)c1ccccc1-c1ccc(C(F)(F)F)cc1
measured.on: His6-AspH315–758 (human aspartate/asparagine-β-hydroxylase, AspH) (Homo sapiens)
measured.endpoint: Plate 5 (% conversion)
measured: 46.02
//
smi: CN[C@@H]1CC[C@@H](c2ccc(Br)cc2)c2ccccc21.Cl
measured.on: His6-AspH315–758 (human aspartate/asparagine-β-hydroxylase, AspH) (Homo sapiens)
measured.endpoint: Plate 5 (% conversion)
measured: 37.76
//
smi: CC[C@H]1OC(=O)[C@H](C)[C@@H](O[C@H]2C[C@@](C)(OC)[C@@H](O)[C@H](C)O2)[C@H](C)[C@@H](O[C@@H]2O[C@H](C)C[C@H](NC)[C@H]2O)[C@](C)(O)C[C@@H](C)CN(C)[C@H](C)[C@@H](O)[C@]1(C)O
measured.on: His6-AspH315–758 (human aspartate/asparagine-β-hydroxylase, AspH) (Homo sapiens)
measured.endpoint: Plate 5 (% conversion)
measured: 37.11
//
smi: O=c1ccc2[nH]cc(C3=CCNCC3)c2[nH]1
measured.on: His6-AspH315–758 (human aspartate/asparagine-β-hydroxylase, AspH) (Homo sapiens)
measured.endpoint: Plate 5 (% conversion)
measured: 38.32
//
smi: Fc1ccc2[nH]c(CN3CCN(c4ccccn4)CC3)cc2c1
measured.on: His6-AspH315–758 (human aspartate/asparagine-β-hydroxylase, AspH) (Homo sapiens)
measured.endpoint: Plate 5 (% conversion)
measured: 37.75
//
smi: Cc1ccc(O)c([C@H](CCN(C(C)C)C(C)C)c2ccccc2)c1
measured.on: His6-AspH315–758 (human aspartate/asparagine-β-hydroxylase, AspH) (Homo sapiens)
measured.endpoint: Plate 5 (% conversion)
measured: 15.18
//
smi: CN1CCC[C@@H]1Cc1c[nH]c2ccc(Nc3ncccc3[N+](=O)[O-])cc12
measured.on: His6-AspH315–758 (human aspartate/asparagine-β-hydroxylase, AspH) (Homo sapiens)
measured.endpoint: Plate 5 (% conversion)
measured: 32.28
//
smi: Nc1nc2ccc(Cl)cc2n2c(-c3ccccc3)nnc12
measured.on: His6-AspH315–758 (human aspartate/asparagine-β-hydroxylase, AspH) (Homo sapiens)
measured.endpoint: Plate 5 (% conversion)
measured: 29.84

Next, consider the following compound.
Query block: Fill in the blank: the reported Plate 5 (% conversion) of CC(C)c1ccc(CC(=O)N2CCC[C@@H](c3cccc(OC(C)(C)C(=O)O)c3)C2)cc1 is ____.
Result block: 34.51
